# Tested on: MHC-I expression by COLO 205 cells
# test method notes: cells
# Format: cell-based, human
# conditions: Homo sapiens, COLO 205, 48 h, MHC-I expression, COLO 205 cells, compounds at 35 μM, 48 hours, flow cytometry (W6/32); read-out: Induction Fold
Field: label. Allowed values: satisfied (fold induction at 35 µM < 2) or not satisfied (fold induction at 35 µM >= 2).

{"columns": ["structure as smiles", "test system", "discrete label"],
 "data": [
  ["CCCCCc1cc(O)cc(OCCCCCCCCCCC(=O)NC2CC2)c1", "MHC-I expression by COLO 205 cells", "satisfied"],
  ["CCCCCn1cc(C(=O)Oc2cccc3ccccc23)c2ccccc21", "MHC-I expression by COLO 205 cells", "satisfied"],
  ["O=C(Oc1cnc2ccccc2c1)c1cn(CCCCCF)c2ccccc12", "MHC-I expression by COLO 205 cells", "not satisfied"],
  ["CCCCCn1cc(C(=O)Oc2ccc3cnccc3c2)c2ccccc21", "MHC-I expression by COLO 205 cells", "not satisfied"],
  ["CCCCCCC(C)(C)c1cc(O)c2c(c1)OC(C)(C)[C@H]1CC=C(CO)C[C@H]21", "MHC-I expression by COLO 205 cells", "satisfied"],
  ["CC(C)(NC(=O)c1cn(CCCCCF)c2ncccc12)c1ccccc1", "MHC-I expression by COLO 205 cells", "satisfied"]
]}
